meta.source: patent US20230114728A1

Tested on: P. aeruginosa ATCC 35151
Experiment: Broth microdilution MIC in CAMHB
Type: cell-based
Conditions: Pseudomonas aeruginosa, ATCC35151; MHB; hyper-permeable strain; read-out: Minimum Inhibitory Concentration, P. aeruginosa ATCC 35151
Would you mind telling me the reported MIC of each entry?

Below, each entry is followed by its recorded MIC result.
NCCN1CCN(C(=O)N[C@H](C(=O)N[C@H]2Cc3cccc(C(=O)O)c3OB2O)c2ccc(C(=O)O)cc2)C(=O)C1=O (single isomer, unassigned) ... 0.5 to 1 µg/mL
CCN1CCN(C(=O)NC(C(=O)N[C@H]2Cc3ccc(SCC[N+]4(C)CCCC4)c(C(=O)O)c3OB2O)c2csc(N)n2)C(=O)C1=O.O=C([O-])C(F)(F)F (stereo partly drawn) ... 8 to 16 µg/mL
NCCN1CCN(C(=O)N[C@@H](C(=O)N[C@H]2Cc3cccc(C(=O)O)c3OB2O)c2cc(Cl)c(O)c(Cl)c2)C(=O)C1=O (single isomer, unassigned) ... < 0.25 µg/mL
CCN1CCN(C(=O)N[C@@H](C(=O)N[C@H]2Cc3cccc(C(=O)O)c3OB2O)c2cc(O)cc(O)c2)C(=O)C1=O (single isomer, unassigned) ... < 0.25 µg/mL
CCN1CCN(C(=O)NC(C(=O)N[C@H]2Cc3ccc(O)c(C(=O)O)c3OB2O)c2ccccc2)C(=O)C1=O (stereo partly drawn) ... 8 to 16 µg/mL

Look at each molecule and report its MIC.
1. CCN1CCN(C(=O)NC(C(=O)N[C@H]2Cc3cccc(C(=O)O)c3OB2O)c2cc(Cl)c(O)cc2F)C(=O)C1=O (stereo partly drawn)
2. CCN1CCN(C(=O)NC(C(=O)N[C@H]2Cc3ccc(C(F)(F)F)c(C(=O)O)c3OB2O)c2csc(N)n2)C(=O)C1=O (stereo partly drawn)

// result
1. 0.5 to 1 µg/mL
2. 8 to 16 µg/mL

Respectfully, I request MIC for each entry included below.
1. CCN1CCN(C(=O)NC(C(=O)N[C@H]2Cc3cccc(C(=O)O)c3OB2O)c2ccc(C(=O)O)c(Cl)c2Cl)C(=O)C1=O (stereo partly drawn)
2. NCCN1CCN(C(=O)N[C@H](C(=O)N[C@H]2Cc3cccc(C(=O)O)c3OB2O)c2cccc(NS(N)(=O)=O)c2)C(=O)C1=O (single isomer, unassigned)
3. NS(=O)(=O)Nc1cccc([C@@H](NC(=O)N2CCN(CC(F)(F)F)C(=O)C2=O)C(=O)N[C@H]2Cc3cccc(C(=O)O)c3OB2O)c1 (single isomer, unassigned)

// result
1: 0.5 to 1 µg/mL; 2: 2 to 4 µg/mL; 3: 2 to 4 µg/mL

Give MIC for all molecules that follow.
1. CCN1CCN(C(=O)N[C@H](C(=O)N[C@H]2Cc3cccc(C(=O)O)c3OB2O)c2cc(F)c(C(=O)O)cc2Cl)C(=O)C1=O (single isomer, unassigned)
2. NCCCN1CCN(C(=O)NC(C(=O)N[C@H]2Cc3cccc(C(=O)O)c3OB2O)c2c(F)cc(O)cc2F)C(=O)C1=O (stereo partly drawn)

// result
2 to 4 µg/mL
2 to 4 µg/mL
